Cited source: ChEMBL document CHEMBL4359837

Target: Mast/stem cell growth factor receptor Kit (Homo sapiens, UniProt P10721, 560-578DEL/T670I)
Sequence (P10721 whole entry, looked up, stated change not applied): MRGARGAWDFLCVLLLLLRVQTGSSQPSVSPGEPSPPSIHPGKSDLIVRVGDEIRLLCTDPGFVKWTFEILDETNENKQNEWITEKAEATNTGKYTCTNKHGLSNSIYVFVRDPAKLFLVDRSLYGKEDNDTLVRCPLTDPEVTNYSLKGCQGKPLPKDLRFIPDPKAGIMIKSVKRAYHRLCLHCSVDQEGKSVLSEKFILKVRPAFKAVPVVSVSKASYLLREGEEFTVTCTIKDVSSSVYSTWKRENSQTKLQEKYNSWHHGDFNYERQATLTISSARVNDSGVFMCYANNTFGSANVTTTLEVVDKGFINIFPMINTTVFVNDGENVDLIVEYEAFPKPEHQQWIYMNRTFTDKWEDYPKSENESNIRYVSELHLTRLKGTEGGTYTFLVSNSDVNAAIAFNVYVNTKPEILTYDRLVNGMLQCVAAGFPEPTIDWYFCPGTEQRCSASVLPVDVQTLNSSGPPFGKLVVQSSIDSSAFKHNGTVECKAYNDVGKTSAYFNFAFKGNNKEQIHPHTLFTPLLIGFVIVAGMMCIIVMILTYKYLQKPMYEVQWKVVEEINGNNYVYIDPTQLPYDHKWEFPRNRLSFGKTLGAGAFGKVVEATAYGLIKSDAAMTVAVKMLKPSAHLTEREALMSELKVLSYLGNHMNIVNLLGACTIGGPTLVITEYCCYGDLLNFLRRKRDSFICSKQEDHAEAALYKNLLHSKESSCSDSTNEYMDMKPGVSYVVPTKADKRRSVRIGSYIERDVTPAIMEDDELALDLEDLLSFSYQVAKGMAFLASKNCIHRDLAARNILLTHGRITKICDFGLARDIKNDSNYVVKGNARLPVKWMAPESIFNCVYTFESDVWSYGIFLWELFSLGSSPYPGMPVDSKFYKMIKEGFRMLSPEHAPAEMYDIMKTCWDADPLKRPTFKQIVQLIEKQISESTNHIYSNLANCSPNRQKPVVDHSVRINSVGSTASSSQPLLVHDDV
Format: cell-based
pEC50: −log10 of the molar value.
Metric: pEC50

>>> measured_result("COc1cc2nccc(Oc3ccc(NC(=O)Cc4ccc(Cl)c(C(F)(F)F)c4)cc3)c2cc1OC")
"> 7.00"

====

Target: Mast/stem cell growth factor receptor Kit (Homo sapiens, UniProt P10721, 560-578DEL/T670I)
Metric: EC50

>>> measured_result("COc1cc2nccc(Oc3ccc(NC(=O)Cc4ccc(Cl)c(C(F)(F)F)c4)cc3)c2cc1OC")
"< 100 nM"

====

Test: Tmax in mouse at 10 mg/kg, po by LC-MS/MS analysis
Type: ADME, organism-based
Settings: in vivo
Metric: Tmax

>>> measured_result("COc1cc2nccc(Oc3ccc(NC(=O)Cc4ccc(Cl)c(C(F)(F)F)c4)cc3)c2cc1OC")
"4 h"

====

Test: Half life in Beagle dog at 5 mg/kg, po by LC-MS/MS analysis
Format: ADME, organism-based, Canis lupus familiaris
Conditions: in vivo
Metric: half-life (h)

>>> measured_result("COc1cc2nccc(Oc3ccc(NC(=O)Cc4ccc(Cl)c(C(F)(F)F)c4)cc3)c2cc1OC")
19.4

====

Assay: Cmax in mouse at 1 mg/kg, iv by LC-MS/MS analysis
Assay type: ADME, organism-based
Design: dose 1 mg/kg, route intravenous
Settings: in vivo
Metric: Cmax (ng/mL)

>>> measured_result("COc1cc2nccc(Oc3ccc(NC(=O)Cc4ccc(Cl)c(C(F)(F)F)c4)cc3)c2cc1OC")
520

====

Target: Mast/stem cell growth factor receptor Kit (Homo sapiens, UniProt P10721, 560-578DEL/T670I)
Assay type: cell-based, GISTT1
Metric: EC50

>>> measured_result("COc1cc2nccc(Oc3ccc(NC(=O)Cc4ccc(Cl)c(C(F)(F)F)c4)cc3)c2cc1OC")
"< 100 nM"

====

Target: Mast/stem cell growth factor receptor Kit (Homo sapiens, UniProt P10721, 560-578DEL)
Type: cell-based, GISTT1
pEC50: −log10 of the molar value.
Metric: pEC50

>>> measured_result("COc1cc2nccc(Oc3ccc(NC(=O)Cc4ccc(Cl)c(C(F)(F)F)c4)cc3)c2cc1OC")
"> 7.00"

====

Biological target: Mast/stem cell growth factor receptor Kit (Homo sapiens, UniProt P10721, 560-578DEL/T670I)
Format: cell-based, GISTT1
pEC50: −log10 of the molar value.
Metric: pEC50

>>> measured_result("COc1cc2nccc(Oc3ccc(NC(=O)Cc4ccc(Cl)c(C(F)(F)F)c4)cc3)c2cc1OC")
"> 7.00"

====

Biological target: Mast/stem cell growth factor receptor Kit (Homo sapiens, UniProt P10721, 560-578DEL)
Type: cell-based, GISTT1
Metric: EC50

>>> measured_result("COc1cc2nccc(Oc3ccc(NC(=O)Cc4ccc(Cl)c(C(F)(F)F)c4)cc3)c2cc1OC")
"< 100 nM"

====

Biological target: Mast/stem cell growth factor receptor Kit (Homo sapiens, UniProt P10721, 560-578DEL/T670I)
Assay type: cell-based, GISTT1
Metric: EC50

>>> measured_result("COc1cc2nccc(Oc3ccc(NC(=O)Cc4ccc(Cl)c(C(F)(F)F)c4)cc3)c2cc1OC")
"< 100 nM"

====

GI50 values, listed per item
Tested on: Mast/stem cell growth factor receptor Kit (Homo sapiens), P10721 [T670I]
Sequence (P10721 whole entry T670I): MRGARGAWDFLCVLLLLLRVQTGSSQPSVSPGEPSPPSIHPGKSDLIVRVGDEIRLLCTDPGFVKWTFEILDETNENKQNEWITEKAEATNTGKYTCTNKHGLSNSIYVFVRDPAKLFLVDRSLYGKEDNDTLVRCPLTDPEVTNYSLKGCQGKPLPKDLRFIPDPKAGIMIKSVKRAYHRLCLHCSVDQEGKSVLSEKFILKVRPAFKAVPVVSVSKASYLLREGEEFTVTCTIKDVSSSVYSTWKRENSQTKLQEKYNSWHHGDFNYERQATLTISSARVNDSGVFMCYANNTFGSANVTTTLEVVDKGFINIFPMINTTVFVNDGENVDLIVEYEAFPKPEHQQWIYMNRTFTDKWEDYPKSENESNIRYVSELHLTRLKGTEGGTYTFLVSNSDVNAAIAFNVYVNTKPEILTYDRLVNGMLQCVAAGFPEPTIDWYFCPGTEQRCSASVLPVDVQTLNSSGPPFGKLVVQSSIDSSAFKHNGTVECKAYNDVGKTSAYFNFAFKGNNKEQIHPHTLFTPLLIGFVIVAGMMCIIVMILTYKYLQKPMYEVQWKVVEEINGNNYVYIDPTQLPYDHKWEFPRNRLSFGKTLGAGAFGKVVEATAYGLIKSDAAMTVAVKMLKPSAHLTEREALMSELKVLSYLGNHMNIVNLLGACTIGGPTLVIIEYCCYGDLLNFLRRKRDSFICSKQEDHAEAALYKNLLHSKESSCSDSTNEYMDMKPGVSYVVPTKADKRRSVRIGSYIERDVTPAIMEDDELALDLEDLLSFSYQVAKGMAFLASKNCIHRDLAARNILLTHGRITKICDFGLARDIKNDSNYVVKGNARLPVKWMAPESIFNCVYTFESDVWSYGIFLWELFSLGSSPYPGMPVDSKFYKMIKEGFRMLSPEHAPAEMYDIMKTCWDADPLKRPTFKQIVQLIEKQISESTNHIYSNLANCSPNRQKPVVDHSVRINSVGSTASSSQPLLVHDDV
Settings: Mus musculus
Description: Inhibition of c-KIT T670I mutant in mouse BAF3(transformed) cells assessed as growth inhibition after 72 hrs by CCK8 assay
Metric: GI50 (nM)

>>> measured_result("COc1cc2nccc(Oc3ccc(NC(=O)Cc4ccc(Cl)c(C(F)(F)F)c4)cc3OC)c2cc1OC")
1560
>>> measured_result("COc1cc2nccc(Oc3ccc(C(=O)NCc4ccc(C(F)(F)F)cc4)cc3)c2cc1OC")
668
>>> measured_result("COc1cc2nccc(Oc3ccc(C(=O)NCc4cccc(C(F)(F)F)c4)cc3)c2cc1OC")
4610
>>> measured_result("COc1cc2nccc(Oc3ccc(NC(=O)CC4CCCCC4)cc3)c2cc1OC")
362
>>> measured_result("COc1cc2nccc(Oc3ccc(NC(=O)Cc4ccc5ccccc5c4)cc3)c2cc1OC")
34
>>> measured_result("COc1cc2nccc(Oc3ccc(NC(=O)Cc4ccc(Cl)c(C(F)(F)F)c4)cc3)c2cc1OC")
4
>>> measured_result("COc1ccc(CC(=O)Nc2ccc(Oc3ccnc4cc(OC)c(OC)cc34)cc2)cc1OC")
179
>>> measured_result("COc1cc2nccc(Oc3ccc(NC(=O)Cc4ccc5c(c4)OCO5)cc3)c2cc1OC")
167
>>> measured_result("COc1cc2nccc(Oc3ccc(NC(=O)Cc4ccncc4)cc3)c2cc1OC")
6990
>>> measured_result("COc1cc2nccc(Oc3ccc(NC(=O)Cc4cccc(C(F)(F)F)c4)cc3)c2cc1OC")
1
>>> measured_result("COc1cc2nccc(Oc3ccc(NC(=O)Cc4ccc(C)c(C)c4)cc3)c2cc1OC")
15
>>> measured_result("COc1cc2nccc(Oc3ccc(NC(=O)Cc4c(F)cccc4F)cc3)c2cc1OC")
1700
>>> measured_result("COc1cc2nccc(Oc3ccc(NC(=O)Cc4ccc(Cl)c(C(F)(F)F)c4)cc3C)c2cc1OC")
9
>>> measured_result("COc1cc2nccc(Nc3ccc(NC(=O)Cc4ccc(Cl)c(C(F)(F)F)c4)cc3)c2cc1OC")
400
>>> measured_result("COc1cc2nccc(Oc3ccc(NC(=O)Cc4ccc(Cl)c(C(F)(F)F)c4)cc3C#N)c2cc1OC")
210
>>> measured_result("COc1cc2nccc(Oc3ccc(NC(=O)CN4CCN(C)CC4)cc3)c2cc1OC")
8520
>>> measured_result("COc1cc2nccc(Oc3ccc(NC(=O)Cc4ccccc4C(F)(F)F)cc3)c2cc1OC")
309
>>> measured_result("COc1cc2nccc(Oc3ccc(NC(=O)Cc4ccc(F)cc4F)cc3)c2cc1OC")
285
>>> measured_result("COc1cccc(CC(=O)Nc2ccc(Oc3ccnc4cc(OC)c(OC)cc34)cc2)c1")
339

====

System: Mast/stem cell growth factor receptor Kit (Homo sapiens), P10721 [T670I]
Conditions: Mus musculus
Metric: GI50 (µM)

>>> measured_result("COc1cc2nccc(Oc3ccc(NC(=O)Cc4ccc(Cl)c(C(F)(F)F)c4)c(Cl)c3)c2cc1OC")
0.07
>>> measured_result("COc1cc2nccc(Oc3ccc(NC(=O)Cc4ccc(Cl)c(Cl)c4)cc3)c2cc1OC")
0.037
>>> measured_result("COc1cc2nccc(Oc3ccc(NC(=O)Cc4ccc(Cl)c(C(F)(F)F)c4)cc3F)c2cc1OC")
0.021
>>> measured_result("COc1cc2nccc(Oc3ccc(NC(=O)Cc4cccc(F)c4)cc3)c2cc1OC")
0.342
>>> measured_result("COc1cc2nccc(Oc3ccc(NC(=O)Cc4ccc(C)c(C(F)(F)F)c4)cc3)c2cc1OC")
0.014
>>> measured_result("COc1cc2nccc(Oc3ccc(NC(=O)Cc4ccc(Cl)c(C(F)(F)F)c4)cc3C(F)(F)F)c2cc1OC")
2.84
>>> measured_result("COc1cc2nccc(Oc3ccc(NC(=O)Cc4ccc(Cl)c(C(F)(F)F)c4)c(F)c3)c2cc1OC")
0.018
>>> measured_result("COc1cc2nccc(N(C)c3ccc(NC(=O)Cc4ccc(Cl)c(C(F)(F)F)c4)cc3)c2cc1OC")
8.46
>>> measured_result("COc1cc2nccc(Oc3ccc(NC(=O)Cc4ccc(F)c(F)c4)cc3)c2cc1OC")
0.309

====

Biological target: Mast/stem cell growth factor receptor Kit (Homo sapiens, UniProt P10721, 560-578DEL/T670I)
Format: cell-based, GISTT1
pEC50: −log10 of the molar value.
Metric: pEC50

>>> measured_result("COc1cc2nccc(Oc3ccc(NC(=O)Cc4ccc(Cl)c(C(F)(F)F)c4)cc3)c2cc1OC")
"> 7.00"

====

Assay: AUC (0 to t) in mouse at 10 mg/kg, po by LC-MS/MS analysis
Type: ADME, organism-based
Details: in vivo
Metric: AUC(0-t) (µg·h/mL)

>>> measured_result("COc1cc2nccc(Oc3ccc(NC(=O)Cc4ccc(Cl)c(C(F)(F)F)c4)cc3)c2cc1OC")
12.6

====

Experiment: Half life in mouse at 10 mg/kg, po by LC-MS/MS analysis
Type: ADME, organism-based
Details: in vivo
Metric: half-life (h)

>>> measured_result("COc1cc2nccc(Oc3ccc(NC(=O)Cc4ccc(Cl)c(C(F)(F)F)c4)cc3)c2cc1OC")
4.5

====

Assay: Tmax in Beagle dog at 1 mg/kg, iv by LC-MS/MS analysis
Assay type: ADME, organism-based, Canis lupus familiaris
Details: in vivo
Metric: Tmax

>>> measured_result("COc1cc2nccc(Oc3ccc(NC(=O)Cc4ccc(Cl)c(C(F)(F)F)c4)cc3)c2cc1OC")
"1.98 min"

====

Target: Mast/stem cell growth factor receptor Kit (Homo sapiens, UniProt P10721, 560-578DEL/T670I)
Type: cell-based, GISTT1
Metric: EC50

>>> measured_result("COc1cc2nccc(Oc3ccc(NC(=O)Cc4ccc(Cl)c(C(F)(F)F)c4)cc3)c2cc1OC")
"< 100 nM"
